Biological target: T1, Ole e 1 (olive, UniProt P19963 1-145)
T1 construct: Also used oligonucleotide-barcoded for cell staining; also called olive allergen; negative control allergen
T1 sequence (looked up): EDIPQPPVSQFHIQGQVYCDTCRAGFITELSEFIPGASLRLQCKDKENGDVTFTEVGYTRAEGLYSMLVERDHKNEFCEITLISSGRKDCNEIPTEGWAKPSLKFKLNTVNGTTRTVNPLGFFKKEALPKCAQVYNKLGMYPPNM
Assay: centered log-ratio of barcode count
observationType: Olee1_ab_clr
Could you respond with only the numeric value?

Could you tell me which Olee1_ab_clr is on file for IgE mAb 13_2 (antibody, V domains shown, IgE (IGHE, IGKC) from HDM-exposed mouse, LymphNode) VH: EVQLQQSGPELVKPGASVKISCKASGYTFTDYYMNWVKQSHGKSLEWIGDINPNNGGTSYNQKFKGKATLTVDKSSSTAYMELRSLTSEDSAVYYCAYGPPRGPPWFAYWGQGTLVTVSA VL: DIVLTQSPASLAVSLGQRATISCRASKSVSTSGYSYMHWYQQKPGQPPKLLIYLASNLESGVPARFSGSGSGTDFTLNIHPVEEEDAATYYCQHSRELPWTFGGGTKLEIK ? 0.0287
